# Test system: PC-3
# assay_summary: NCI tumour cell line growth inhibition, 48 h
Calls of active or inactive are those of the source. Cut-off read from the data, not from the text of the source: active = GI50 up to about 1.1 µM and inactive = higher.
Classes to choose from: active, inactive

Query: Recorded test outcome, item COC1/C=C\C=C(/C)C(=O)NC2=CC(=O)C(O)=C(CC(C)CC(OC)C(O)C(C)/C=C(\C)C1OC(N)=O)C2=O (centres undefined)
Reply: active

Query: Fill in: this test's call for `CCCc1cn2c(/C=N/NC(=N)N)c(-c3cc([N+](=O)[O-])c(Cl)cc3Cl)nc2s1` is ___
Reply: inactive

Query: Could you kindly confirm the outcome this assay logged for CCCCOC(=O)C(NC(C(=O)OCCCC)c1cc(C(C)(C)C)c(O)c(C(C)(C)C)c1)c1cc(C(C)(C)C)c(O)c(C(C)(C)C)c1 (centres undefined) ?
Reply: inactive

Query: Outcome logged for `C[As+](C)(c1ccc(Br)c([N+](=O)[O-])c1)c1ccc(Br)c([N+](=O)[O-])c1` in this assay:
Reply: inactive
